target: Gonadotropin-releasing hormone receptor (Homo sapiens) (UniProt P30968); assay: Inhibition of GnRH receptor at 10 uM
In this section, each of the compounds is paired with its reported inhibition.
Reported property: inhibition (%)

[[record]]
compound = "CC(C)CN(C)CCn1c(=O)c2c(n(CCOc3ccccc3)c1=O)CCN(CCCC(F)(F)F)C2"
experimental_value = 0

[[record]]
compound = "O=c1c2c(n(Cc3c(F)cccc3F)c(=O)n1CCN1CCc3ccccc3C1)CCN(CC1CCCC1)C2"
experimental_value = 16

[[record]]
compound = "CC(C)CN(C)CCn1c(=O)c2c(n(Cc3c(F)cccc3F)c1=O)CCN(Cc1ccc(OC(F)(F)F)cc1)C2"
experimental_value = 73

[[record]]
compound = "CNC(Cn1c(=O)c2c(n(Cc3c(F)cccc3F)c1=O)CCN(Cc1ccc(C)cc1C)C2)c1ccccc1 (stereo not drawn)"
experimental_value = 100

[[record]]
compound = "NC(CC1CCCCC1)Cn1c(=O)c2c(n(Cc3c(F)cccc3F)c1=O)CCN(Cc1ccc(Cl)cc1)C2 (stereo not drawn)"
experimental_value = 66

[[record]]
compound = "CC(CCN1CCc2c(c(=O)n(CCN3CCCCC3)c(=O)n2Cc2c(F)cccc2F)C1)CC(C)(C)C (stereo not drawn)"
experimental_value = 50

[[record]]
compound = "Cc1ccc(CN2CCc3c(c(=O)n(CC4CCNCC4)c(=O)n3Cc3c(F)cccc3F)C2)c(C)c1"
experimental_value = 72

[[record]]
compound = "Cc1ccc(CN2CCc3c(c(=O)n(CC4NCCc5ccccc54)c(=O)n3Cc3c(F)cccc3F)C2)c(C)c1 (stereo not drawn)"
experimental_value = 95


* * *

Sequence of the target: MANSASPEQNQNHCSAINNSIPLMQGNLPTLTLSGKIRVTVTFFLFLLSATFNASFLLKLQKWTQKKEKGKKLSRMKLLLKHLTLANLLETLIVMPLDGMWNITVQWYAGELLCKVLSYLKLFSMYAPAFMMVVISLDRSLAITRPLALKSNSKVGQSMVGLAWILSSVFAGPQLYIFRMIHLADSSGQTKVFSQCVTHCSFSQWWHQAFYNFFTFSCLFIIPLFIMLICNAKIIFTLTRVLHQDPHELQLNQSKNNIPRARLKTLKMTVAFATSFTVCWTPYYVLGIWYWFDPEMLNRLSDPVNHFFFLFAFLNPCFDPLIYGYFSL
Reported property: Ki (nM)

[[record]]
compound = "COc1cccc(-c2c(C)n(Cc3c(F)cccc3F)c(=O)n(CC(C)NCc3nccs3)c2=O)c1F (centres undefined)"
reported_property = "Ki"
experimental_value = 6

[[record]]
compound = "Cc1ccc(CN2CCc3c(c(=O)n(CC4NCCc5ccccc54)c(=O)n3Cc3c(F)cccc3F)C2)c(C)c1 (centres undefined)"
reported_property = "Ki"
experimental_value = 110

[[record]]
compound = "NC(CC1CCCCC1)Cn1c(=O)c2c(n(Cc3c(F)cccc3F)c1=O)CCN(Cc1ccc(Cl)cc1)C2 (centres undefined)"
reported_property = "Ki"
experimental_value = 3200

[[record]]
compound = "CC(C)CN(C)CCn1c(=O)c2c(n(Cc3c(F)cccc3F)c1=O)CCN(Cc1ccc(OC(F)(F)F)cc1)C2"
reported_property = "Ki"
experimental_value = 2500

